Where do these numbers come from? They come from patent US20250206732A1.

molecular target: AsPC-1 HiBiT-KRASG12D (Homo sapiens, UniProt P01116, G12D); construct: insert the HiBiT tag onto the N-terminus of one or more of the endogenous KRAS alleles; endogenous in cells; host or cells: AsPC-1 (ATCC CRL-1682), CRISPR-Cas9 knock-in clone, one tagged allele; experiment: HiBiT degradation assay (G12D), AsPC-1 HiBiT-KRASG12D cells; assay type: cell-based; conditions: ASPC1, AsPC-1 HiBiT-KRASG12D cells, 24 hours treatment, maximum degradation observed
Sequence (P01116 1-188 isoform P01116-2 G12D): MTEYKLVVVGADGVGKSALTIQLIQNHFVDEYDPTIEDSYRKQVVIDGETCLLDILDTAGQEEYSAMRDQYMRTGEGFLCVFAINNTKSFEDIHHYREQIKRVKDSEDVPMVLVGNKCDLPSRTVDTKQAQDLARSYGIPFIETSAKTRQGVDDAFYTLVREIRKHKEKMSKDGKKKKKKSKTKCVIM
recorded.endpoint: Dmax

Worked set:
CCc1cccc2cc(O)cc(-c3ncc4c(N5CC6CCC(C5)N6)nc(OC[C@]56CCCN5[C@H](COC(=O)N5CC(Oc7cc([C@H](C(=O)N8C[C@H](O)C[C@H]8C(=O)N[C@@H](C)c8ccc(-c9scnc9C)cc8)C(C)C)on7)C5)CC6)nc4c3F)c12 | 80 to 100%
C#Cc1c(F)ccc2cc(O)cc(-c3ncc4c(N5CC6CCC(C5)N6)nc(OC[C@]56CCCN5[C@H](COc5cc([C@@H](C(=O)N7C[C@H](O)C[C@H]7C(=O)N[C@@H](C)c7ccc(-c8scnc8C)cc7)C(C)C)on5)CC6)nc4c3F)c12 | 20 to 60%
C#Cc1c(F)ccc2cc(O)cc(-c3ncc4c(N5CC6CCC(C5)N6)nc(OCCN5CCC(CCOc6cc([C@H](C(=O)N7C[C@H](O)C[C@H]7C(=O)N[C@@H](C)c7ccc(-c8scnc8C)cc7)C(C)C)on6)CC5)nc4c3F)c12 | 80 to 100%
CCc1cccc2cc(O)cc(-c3ncc4c(N5CC6CCC(C5)N6)nc(OCCN5CC[C@H]6CN(c7cc([C@H](C(=O)N8C[C@H](O)C[C@H]8C(=O)N[C@@H](C)c8ccc(-c9scnc9C)cc8)C(C)C)on7)C[C@H]6C5)nc4c3F)c12 (relative stereo) | 80 to 100%
CCc1cccc2cc(O)cc(-c3ncc4c(N5CC6CCC(C5)N6)nc(OCCN5CCC[C@@H](CN6CCN(c7cc([C@H](C(=O)N8C[C@H](O)C[C@H]8C(=O)N[C@@H](C)c8ccc(-c9scnc9C)cc8)C(C)C)on7)CC6)C5)nc4c3F)c12 | 80 to 100%
CCc1cccc2cccc(-c3ncc4c(N5CC6CCC(C5)N6)nc(OC[C@@H]5CC[C@@H](COC(=O)N6CC(Oc7cc([C@H](C(=O)N8C[C@H](O)C[C@H]8C(=O)N[C@@H](C)c8ccc(-c9scnc9C)cc8)C(C)C)on7)C6)N5C)nc4c3F)c12 | 80 to 100%

// Dmax value for CCc1cccc2cc(O)cc(-c3ncc4c(N5CC6CCC(C5)N6)nc(OC[C@@H]5CN(CC6CN(c7cc([C@@H](C(=O)N8C[C@H](O)C[C@H]8C(=O)N[C@@H](C)c8ccc(-c9scnc9C)cc8)C(C)C)on7)C6)CCN5C)nc4c3F)c12 : 20 to 60%

// Dmax value for CCc1cccc2cc(O)cc(-c3ncc4c(N5CC6CCC(C5)N6)nc(OC[C@@]56CCCN5[C@H](COC(=O)N5CCN(c7cc([C@@H](C(=O)N8C[C@H](O)C[C@H]8C(=O)N[C@@H](C)c8ccc(-c9scnc9C)cc8)C(C)C)on7)CC5)CC6)nc4c3F)c12 : 20 to 60%
